Cited source for all entries: patent US20090209525A1

# STUDY SYSTEM: rat M1 S109A receptor (Rattus norvegicus, UniProt P08482, S109A)
# Construct: expressed in transfected cells
# METHOD DESCRIPTION: R-SAT functional assay, S109A mutant
# Assay type: cell-based
# ASSAY CONDITIONS: Table 3; S109A
READOUT LABEL: pEC50
Scale: negative log10 of molar concentration, which is what pEC50 denotes.

Past entries and their recorded results:
Clc1ccc2c(c1)N=C(N1CCNCC1)c1ccccc1N2
7.00
CCCCC1CCN(CCCN2C(=O)COc3cc(F)ccc32)CC1
7.80

What value of measured pEC50 is listed for CCCCC1CCN(CCCC(=O)c2ccccc2C)CC1 ?
6.80

###

# STUDY SYSTEM: rat M1 W101A receptor (Rattus norvegicus, UniProt P08482, W101A)
# Construct: expressed in transfected cells
# METHOD DESCRIPTION: R-SAT functional assay, W101A mutant
# Format: cell-based
# ASSAY CONDITIONS: Table 4; M1 W101A; maximum response relative to xanomeline
READOUT LABEL: % Eff (%)
# unit: % | format: bare number

Past entries and their recorded results:
CCCCC1CCN(CCCN2C(=O)COc3cc(F)ccc32)CC1 [AC-260584]
98
CCCCCCOc1nsnc1C1=CCCN(C)C1 [Xanomeline]
106
CCCCC1CCN(CCCC(=O)c2ccccc2C)CC1 [AC-42]
97
O=C1CCCN1CC#CCN1CCCC1 [Oxotremorine]
87

What value of measured % Eff is listed for Clc1ccc2c(c1)N=C(N1CCNCC1)c1ccccc1N2 [NDMC] ?
72

###

# STUDY SYSTEM: rat M1 wild-type receptors (Rattus norvegicus)
# Construct: expressed in transfected cells
# Sequence (P08482 1-460): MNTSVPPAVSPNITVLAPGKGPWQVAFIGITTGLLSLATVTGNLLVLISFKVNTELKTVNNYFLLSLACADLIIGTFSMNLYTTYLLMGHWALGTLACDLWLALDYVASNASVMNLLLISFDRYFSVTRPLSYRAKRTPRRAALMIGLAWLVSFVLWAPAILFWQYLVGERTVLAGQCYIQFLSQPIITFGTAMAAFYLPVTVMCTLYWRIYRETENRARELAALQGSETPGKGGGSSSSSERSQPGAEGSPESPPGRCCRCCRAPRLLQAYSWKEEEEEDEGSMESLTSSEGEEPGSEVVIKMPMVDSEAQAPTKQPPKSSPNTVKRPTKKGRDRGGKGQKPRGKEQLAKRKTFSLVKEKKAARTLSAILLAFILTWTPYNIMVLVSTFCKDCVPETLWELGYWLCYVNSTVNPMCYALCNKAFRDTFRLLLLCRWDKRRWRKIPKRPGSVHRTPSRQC
# METHOD DESCRIPTION: R-SAT functional assay, wild-type receptor
# Type: cell-based
# ASSAY CONDITIONS: pEC50, Table 10; M1 Wild-Type; NA = non-active
READOUT LABEL: EC50 (nM)
# unit: nM | format: bare number

What value of measured EC50 is listed for O=C1CCCN1CC#CCN1CCCC1 ?
31.6
